Documented inhibition of growth at 50 µg/mL across a set of compounds
test system: Sclerotinia sclerotiorum; assay: Antifungal activity against Sclerotinia sclerotiorum assessed as growth inhibition at 50 ug/mL measured after 2 days post dose; type: functional; conditions: 48 h, read-out: GI

# compound, inhibition of growth at 50 µg/mL
records = [
    ("COc1ccc(-c2csc(NC(=O)c3snnc3C)n2)cc1", "5.6%"),
    ("COc1cccc(-c2nnc(-c3snnc3C)o2)c1", "23.5%"),
    ("Cc1nn(-c2ccccc2)nc1-c1nnc(-c2snnc2C)o1", "23.5%"),
    ("CCCc1c(-c2nnc(-c3snnc3C)o2)cnn1-c1ccc(Cl)cc1", "23.5%"),
    ("Cc1ccc(NC(=O)c2snnc2C)cc1Cl [TIADINIL]", "34.4%"),
    ("CCc1cc(-c2nnc(-c3snnc3C)o2)nn1C", "0%"),
    ("CCCCCCCc1nnc(-c2snnc2C)o1", "32.1%"),
    ("Cc1nnsc1-c1nnc(-c2ccc(=O)[nH]c2)o1", "53.6%"),
    ("Cc1cccc(-c2nnc(-c3snnc3C)o2)c1", "23.5%"),
    ("Cc1nnsc1C(=O)Nc1nc(-c2ccccc2)cs1", "47.3%"),
    ("Cc1ccc(-c2nnc(-c3snnc3C)o2)s1", "40.5%"),
    ("Cc1ccc(-c2nnc(-c3snnc3C)o2)cc1", "56%"),
    ("Cc1nnsc1-c1nnc(/C=C/c2ccccc2)o1", "0%"),
]

// data source = ChEMBL document CHEMBL3046238
